The measured values listed here are drawn from ChEMBL document CHEMBL1147836.

experimental-target: Histamine H3 receptor (Homo sapiens, UniProt Q9Y5N1)
Sequence (Q9Y5N1 whole entry): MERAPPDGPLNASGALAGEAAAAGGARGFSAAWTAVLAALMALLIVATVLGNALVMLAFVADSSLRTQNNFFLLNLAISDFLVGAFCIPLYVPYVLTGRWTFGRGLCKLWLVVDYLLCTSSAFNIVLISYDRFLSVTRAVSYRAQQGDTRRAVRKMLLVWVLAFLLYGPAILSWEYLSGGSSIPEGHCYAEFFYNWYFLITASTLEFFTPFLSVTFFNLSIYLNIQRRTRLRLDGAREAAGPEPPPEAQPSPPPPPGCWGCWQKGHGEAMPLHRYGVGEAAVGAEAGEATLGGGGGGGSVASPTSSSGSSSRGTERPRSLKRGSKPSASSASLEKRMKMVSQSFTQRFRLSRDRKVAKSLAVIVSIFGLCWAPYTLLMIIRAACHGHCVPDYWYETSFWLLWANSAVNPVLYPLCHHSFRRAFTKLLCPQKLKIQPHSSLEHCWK
assay-comment: Antagonist activity at human histamine H3 receptor by [35S]GTP-gamma-S assay
observable: Ki (nM)

Below, each entry is followed by its recorded Ki result.
entry-smiles: CCN(CC)C[C@@H]1CCCN1C(=O)c1cc2cc(C(F)(F)F)ccc2o1
unit-of-measurement: nM
recorded-result: 14
//
entry-smiles: O=C(c1cc2cc(Cl)ccc2o1)N1CCC[C@H]1CN1CCCC1
unit-of-measurement: nM
recorded-result: 5
//
entry-smiles: N#Cc1ccc2oc(C(=O)N3CCC[C@H]3CN3CCCC3)cc2c1
unit-of-measurement: nM
recorded-result: 5
//
entry-smiles: O=C(c1cc2cc(C(F)(F)F)ccc2o1)N1CCC[C@H]1CN1CCCCC1
unit-of-measurement: nM
recorded-result: 7
//
entry-smiles: O=C(c1cc2cc(OC(F)(F)F)ccc2o1)N1CCC[C@H]1CN1CCCC1
unit-of-measurement: nM
recorded-result: 11
//
entry-smiles: O=C(c1cc2ccc(C(F)(F)F)cc2o1)N1CCC[C@H]1CN1CCCCC1
unit-of-measurement: nM
recorded-result: 22

1: CCOc1cccc2cc(C(=O)N3CCC[C@H]3CN3CCCC3)oc12
2: O=C(c1cc2cc(C(F)(F)F)ccc2o1)N1CCC[C@H]1CN1CCCC1
For the pair 1 and 2 , which member has the lower Ki number? State the label of the item chosen.
2
(2: 4 nM, 1: 7 nM)

a: O=C(c1cc2ccccc2s1)N1CCC[C@H]1CN1CCCC1
b: CCN(CC)C[C@@H]1CCCN1C(=O)c1cc2ccc(C(F)(F)F)cc2o1
// which entry has the larger Ki value, a or b ? State the label of the item chosen.
b
